Molecular target: wild-type HIV-1 protease (Human immunodeficiency virus type 1 group M subtype B, UniProt P04585)
Experiment: Assay for inhibition of microbial expressed HIV protease
Format: biochemical
Conditions: wild-type HIV-1 protease expressed in E. coli, peptide substrate, pH 5.5; read-out: Enzyme Inhibition - IC50
pIC50: −log10 of the molar value.
// Condition not met strictly below 10 in pIC50; Condition met otherwise

Illustrative cases are given below, each with its answer.
{"Query Smiles": "CCCN([C@H](CO)CCC[C@H](CC)NC(=O)[C@@H](N)C(c1ccccc1)c1ccccc1)S(=O)(=O)c1ccc(CO)cc1", "Answer Label": "Condition met"}
{"Query Smiles": "CCN([C@H](CO)CCC[C@@H](NC(=O)[C@@H](NC(=O)OC)C(c1ccccc1)c1ccccc1)C1CC1)S(=O)(=O)c1ccc(CO)cc1", "Answer Label": "Condition met"}
{"Query Smiles": "COC(=O)N[C@@H](Cc1ccccc1Br)C(=O)N[C@H](CCC[C@@H](CO)N(C(C)C)S(=O)(=O)c1ccc(CO)cc1)C1CC1", "Answer Label": "Condition not met"}

# next molecule below
[in] I'd appreciate it if you could say whether `COC(=O)N[C@H](C(=O)N[C@H](CCC[C@@H](CO)N(CCC(C)C)S(=O)(=O)c1ccc(CO)cc1)C(C)(C)C)C(c1ccccc1)c1ccccc1` has pIC50 at least equal to 10.
[out] Condition not met
